The following molecules are shown together with reported viability at 24 h, 0.1 µM values.
Experiment: In vitro MTT cytotoxicity assay on MDBK cells
Format: cell-based, bovine
Conditions: bovine, MDBK cells (NBL-1 strain)
Note: a bare number is incomplete; add the unit.

Oc1cc(O)c2c(c1)O[C@H](c1cc(O)c(O)c(O)c1)[C@@H](O)C2 = 80.8%
Oc1cc(O)cc(/C=C/c2ccccc2)c1 = 103%
O=c1c(O[C@@H]2O[C@@H](CO)[C@H](O)[C@H]2O)c(-c2ccc(O)c(O)c2)oc2cc(O)cc(O)c12 = 94.6%
O=C1C[C@@H](c2ccc(O)cc2)Oc2cc(O)cc(O)c21 = 92.2%
O=c1c(O[C@@H]2O[C@H](CO)[C@@H](O)[C@H](O)[C@H]2O)c(-c2ccc(O)c(O)c2)oc2cc(O)cc(O)c12 = 98%

INPUT: Request the reported viability at 24 h, 0.1 µM associated with `CC1(C)CC[C@]2(C)CC[C@]3(C)C(=CC[C@@H]4[C@@]5(C)CC[C@H](O)C(C)(C)[C@@H]5CC[C@]43C)[C@@H]2C1`
OUTPUT: 78.1%
